The origin of these recorded values is patent US20240391954A1.

Target: human MC3R (human, UniProt P41968 1-323)
Sequence (P41968 whole entry): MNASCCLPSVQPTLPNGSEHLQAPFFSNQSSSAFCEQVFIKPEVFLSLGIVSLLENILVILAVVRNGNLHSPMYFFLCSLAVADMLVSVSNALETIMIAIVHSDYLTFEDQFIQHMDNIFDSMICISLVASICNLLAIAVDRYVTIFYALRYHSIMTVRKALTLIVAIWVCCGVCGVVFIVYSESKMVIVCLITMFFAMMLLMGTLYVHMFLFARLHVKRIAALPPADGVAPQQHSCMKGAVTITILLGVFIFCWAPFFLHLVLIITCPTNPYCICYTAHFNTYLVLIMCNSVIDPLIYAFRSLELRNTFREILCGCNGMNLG
Assay: cell-based or functional assay
Positions of bridges follow the written chain, without caps; N, C: chain ends. Non-standard residues stand in square brackets, D forms with d. Cit = NC(=O)NCCC[C@H](N)C(=O)O; Aib = CC(C)(N)C(=O)O
outcome_measure: cAMP EC50 (nM)
The reply should be a number in nM, with the unit left off.

# input What cAMP EC50 value was documented for this binder, Ac-CGH[dF]RFC-NH2 (disulfide 1-7; SMILES CC(=O)N[C@H]1CSSC[C@@H](C(N)=O)NC(=O)[C@H](Cc2ccccc2)NC(=O)[C@H](CCCNC(=N)N)NC(=O)[C@@H](Cc2ccccc2)NC(=O)[C@H](Cc2c[nH]cn2)NC(=O)CNC1=O) [CTX-1637] ?
# output 68

# input Can you handle Ac-CGR[dF]RWC-NH2 (disulfide 1-7; SMILES CC(=O)N[C@H]1CSSC[C@@H](C(N)=O)NC(=O)[C@H](Cc2c[nH]c3ccccc23)NC(=O)[C@H](CCCNC(=N)N)NC(=O)[C@@H](Cc2ccccc2)NC(=O)[C@H](CCCNC(=N)N)NC(=O)CNC1=O) [CTX-1629] next?
# output 13

# input Another binder to look at: Ac-CGR[dF]RFC-NH2 (disulfide 1-7; SMILES CC(=O)N[C@H]1CSSC[C@@H](C(N)=O)NC(=O)[C@H](Cc2ccccc2)NC(=O)[C@H](CCCNC(=N)N)NC(=O)[C@@H](Cc2ccccc2)NC(=O)[C@H](CCCNC(=N)N)NC(=O)CNC1=O) [CTX-1638]
# output 408

# input Next: Ac-RC[Aib][Cit][dF]R[dW]C-NH2 (disulfide 2-8) [CTX-1290]
# output 1040

# input Then this binder: {CH2CO}-[Aib]H[dF]RFC-NH2 (thioether N-6; SMILES CC1(C)NC(=O)CSC[C@@H](C(N)=O)NC(=O)[C@H](Cc2ccccc2)NC(=O)[C@H](CCCNC(=N)N)NC(=O)[C@@H](Cc2ccccc2)NC(=O)[C@H](Cc2c[nH]cn2)NC1=O) [CTX-1650]
# output 15200
